Assay Target: SHP2-C SH2
Experiment Summary: SH2 binding enrichment of the phosphorylated peptide, bacterial display (enrichment ratio); higher = better substrate or ligand; peptides without Tyr show the background
Assign met whenever SH2 binding enrichment does not fall below 0.7; assign not met whenever it does.

[[record]]
input_sequence = "MSSHHYDFKKF [ZNF445_Y428_YF]"
class_name = "not met"

[[record]]
input_sequence = "ESAAIYNPVIF [RHO_Y301_K296E_YF]"
class_name = "not met"

[[record]]
input_sequence = "RRRLIYRCQVG [NR2E3_Y81]"
class_name = "not met"

[[record]]
input_sequence = "YSTDCYRVGGH [NTRK2_Y707_Y706C]"
class_name = "met"


Please look at the following sequence next.
Could you please find out whether RHCSGYVLIAM [EFR3A_Y73_R70C] has SH2 binding enrichment that meets 0.7 or exceeds it?
met

----------
Assay Target: Fes (UniProt P07332)
Sequence (P07332 whole entry, looked up): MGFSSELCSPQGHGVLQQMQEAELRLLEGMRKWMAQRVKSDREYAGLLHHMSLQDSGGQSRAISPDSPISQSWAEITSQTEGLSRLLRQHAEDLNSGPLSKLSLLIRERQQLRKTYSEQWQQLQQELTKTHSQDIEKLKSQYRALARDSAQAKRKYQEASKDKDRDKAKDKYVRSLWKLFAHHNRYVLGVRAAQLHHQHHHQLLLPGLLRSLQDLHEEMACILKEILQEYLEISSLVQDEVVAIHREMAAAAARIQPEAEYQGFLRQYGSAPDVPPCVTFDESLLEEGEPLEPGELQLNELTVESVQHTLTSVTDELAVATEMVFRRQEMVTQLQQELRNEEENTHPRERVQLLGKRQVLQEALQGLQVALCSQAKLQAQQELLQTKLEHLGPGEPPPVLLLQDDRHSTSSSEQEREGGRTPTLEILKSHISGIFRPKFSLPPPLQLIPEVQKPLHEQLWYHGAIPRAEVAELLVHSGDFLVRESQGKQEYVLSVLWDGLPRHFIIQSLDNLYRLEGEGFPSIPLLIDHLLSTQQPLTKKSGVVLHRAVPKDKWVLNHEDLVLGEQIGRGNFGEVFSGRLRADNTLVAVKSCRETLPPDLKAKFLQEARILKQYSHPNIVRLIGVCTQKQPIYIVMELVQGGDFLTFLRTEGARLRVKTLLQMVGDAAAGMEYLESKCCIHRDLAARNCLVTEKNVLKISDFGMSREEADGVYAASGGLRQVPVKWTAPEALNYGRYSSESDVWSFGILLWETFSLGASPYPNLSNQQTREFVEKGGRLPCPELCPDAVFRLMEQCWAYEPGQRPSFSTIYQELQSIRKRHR
Experiment Summary: phosphorylation enrichment, bacterial display (enrichment ratio); higher = better substrate or ligand; peptides without Tyr show the background
Assign condition met whenever phosphorylation enrichment does not fall below 0.9; assign condition not met whenever it does.

[[record]]
input_sequence = "QMVDMYASSFM [AVPR2_Y124_G122D_YF]"
class_name = "condition met"

[[record]]
input_sequence = "NYYDTYIKTCL [IQGAP2_Y1445]"
class_name = "condition met"

[[record]]
input_sequence = "ALTDNYMFVVI [HAGH_Y61_L64V_YF]"
class_name = "condition met"

[[record]]
input_sequence = "FQQLFYLLQTN [IQGAP2_Y890_YF]"
class_name = "condition met"

[[record]]
input_sequence = "PRLLRYLQLDF [ASB10_Y457]"
class_name = "condition met"

[[record]]
input_sequence = "CTTIHYNNMCN [TP53_Y234_Y236N]"
class_name = "condition met"


Could you please find out whether PEACDYGLGGG [GSTO1_Y239] has phosphorylation enrichment that meets 0.9 or exceeds it?
condition met

Could you please find out whether TVQVAYFTMMM [SPATA17_Y83_YF] has phosphorylation enrichment that meets 0.9 or exceeds it?
condition met

Could you please find out whether `ANNEFYFRVCA` has phosphorylation enrichment that meets 0.9 or exceeds it?
condition met

----------
Assay Target: c-Src SH2
Experiment Summary: SH2 binding enrichment of the phosphorylated peptide, bacterial display (enrichment ratio); higher = better substrate or ligand; peptides without Tyr show the background
Quantity: SH2 binding enrichment
Please give only the number in your answer, with no unit.

Reference set, count: 2
[[record]]
input_sequence = "FKELVYETVRV [FSHB_Y76]"
reported_value = 0.77

[[record]]
input_sequence = "SSYPDYLAAVD [GLB1_Y154_D151Y]"
reported_value = 0.498


Supply recorded SH2 binding enrichment for FRDMDYRSFPR [RBM10_Y41_YF] here.
0.543

Supply recorded SH2 binding enrichment for IGCHAYGDQFR [IDH1_Y135_R132C_YF] here.
0.516

----------
Form field: phosphorylation enrichment (one value per entry).
Assay Target: Fes (UniProt P07332)
Experiment Summary: phosphorylation enrichment, bacterial display (enrichment ratio); higher = better substrate or ligand; peptides without Tyr show the background
Please give only the number in your answer, with no unit.

Reference set, count: 8
[[record]]
input_sequence = "NGRQCYSCKGN [PLAUR_Y217]"
quantity = "phosphorylation enrichment"
reported_value = 0.456

[[record]]
input_sequence = "TLSGIYQFIIA [FOXL2_Y81_YF]"
quantity = "phosphorylation enrichment"
reported_value = 3.16

[[record]]
input_sequence = "SVTCTYSPDLN [TP53_Y126_A129D]"
quantity = "phosphorylation enrichment"
reported_value = 1.71

[[record]]
input_sequence = "LGKGSYAKVKS [TSSK2_Y23]"
quantity = "phosphorylation enrichment"
reported_value = 1.83

[[record]]
input_sequence = "QDEHGYIFRCF [HSPB1_Y133_S135F]"
quantity = "phosphorylation enrichment"
reported_value = 2.15

[[record]]
input_sequence = "HFGCVYFGTLL [MET_Y1093_H1094Y_YF]"
quantity = "phosphorylation enrichment"
reported_value = 1.23

[[record]]
input_sequence = "REVVNYVQKRN [RMI1_Y450]"
quantity = "phosphorylation enrichment"
reported_value = 1.08

[[record]]
input_sequence = "NDKLCYEVSSP [CDH13_Y66_R65C]"
quantity = "phosphorylation enrichment"
reported_value = 1.53


Supply recorded phosphorylation enrichment for ARSMEYLAEQK [MST1R_Y1198] here.
0.839

Supply recorded phosphorylation enrichment for APQFTYAQGGQ [FLNA_Y1763_YF] here.
0.706

Supply recorded phosphorylation enrichment for YVGGFYGGCNE [CTSC_Y352] here.
1.14

Supply recorded phosphorylation enrichment for RLGNQHVNVMN [SLC3A1_Y461_Y461H] here.
1.09

Supply recorded phosphorylation enrichment for TRDVNYGWTIR [MT-CYB_Y75_I78T] here.
0.969

Supply recorded phosphorylation enrichment for KPEKTYGLRKE [CEP43_Y267] here.
0.766

----------
Assay Target: Grb2 SH2 (UniProt P62993)
Sequence (P62993 whole entry, looked up): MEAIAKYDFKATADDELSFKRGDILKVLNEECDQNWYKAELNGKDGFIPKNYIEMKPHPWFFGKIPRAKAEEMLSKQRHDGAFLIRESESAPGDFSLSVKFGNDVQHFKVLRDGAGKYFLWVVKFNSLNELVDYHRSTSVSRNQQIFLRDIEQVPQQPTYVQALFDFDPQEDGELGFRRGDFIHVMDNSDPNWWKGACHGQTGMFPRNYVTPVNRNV
Experiment Summary: SH2 binding enrichment of the phosphorylated peptide, bacterial display (enrichment ratio); higher = better substrate or ligand; peptides without Tyr show the background
Assign yes whenever SH2 binding enrichment does not fall below 0.9; assign no whenever it does.

[[record]]
input_sequence = "RTTIHYNYMCN [TP53_Y234_C229R]"
class_name = "no"

[[record]]
input_sequence = "GPQGVYSNKLV [PTPN14_Y506]"
class_name = "no"

[[record]]
input_sequence = "ASMAKYFASGI [ACADSB_Y372_E376G_YF]"
class_name = "yes"

[[record]]
input_sequence = "KHMADYPDYKY [SOX11_Y113]"
class_name = "no"

[[record]]
input_sequence = "SSLMKYQQNVS [EGFEM1P_Y160_P157L]"
class_name = "no"


Please look at the following sequence next.
Could you please find out whether GMEIVYVYVKK [DNAI2_Y5] has SH2 binding enrichment that meets 0.9 or exceeds it?
no

----------
Form field: phosphorylation enrichment (one value per entry).
Assay Target: EPHB2 (UniProt P29323)
Sequence (P29323 whole entry, looked up): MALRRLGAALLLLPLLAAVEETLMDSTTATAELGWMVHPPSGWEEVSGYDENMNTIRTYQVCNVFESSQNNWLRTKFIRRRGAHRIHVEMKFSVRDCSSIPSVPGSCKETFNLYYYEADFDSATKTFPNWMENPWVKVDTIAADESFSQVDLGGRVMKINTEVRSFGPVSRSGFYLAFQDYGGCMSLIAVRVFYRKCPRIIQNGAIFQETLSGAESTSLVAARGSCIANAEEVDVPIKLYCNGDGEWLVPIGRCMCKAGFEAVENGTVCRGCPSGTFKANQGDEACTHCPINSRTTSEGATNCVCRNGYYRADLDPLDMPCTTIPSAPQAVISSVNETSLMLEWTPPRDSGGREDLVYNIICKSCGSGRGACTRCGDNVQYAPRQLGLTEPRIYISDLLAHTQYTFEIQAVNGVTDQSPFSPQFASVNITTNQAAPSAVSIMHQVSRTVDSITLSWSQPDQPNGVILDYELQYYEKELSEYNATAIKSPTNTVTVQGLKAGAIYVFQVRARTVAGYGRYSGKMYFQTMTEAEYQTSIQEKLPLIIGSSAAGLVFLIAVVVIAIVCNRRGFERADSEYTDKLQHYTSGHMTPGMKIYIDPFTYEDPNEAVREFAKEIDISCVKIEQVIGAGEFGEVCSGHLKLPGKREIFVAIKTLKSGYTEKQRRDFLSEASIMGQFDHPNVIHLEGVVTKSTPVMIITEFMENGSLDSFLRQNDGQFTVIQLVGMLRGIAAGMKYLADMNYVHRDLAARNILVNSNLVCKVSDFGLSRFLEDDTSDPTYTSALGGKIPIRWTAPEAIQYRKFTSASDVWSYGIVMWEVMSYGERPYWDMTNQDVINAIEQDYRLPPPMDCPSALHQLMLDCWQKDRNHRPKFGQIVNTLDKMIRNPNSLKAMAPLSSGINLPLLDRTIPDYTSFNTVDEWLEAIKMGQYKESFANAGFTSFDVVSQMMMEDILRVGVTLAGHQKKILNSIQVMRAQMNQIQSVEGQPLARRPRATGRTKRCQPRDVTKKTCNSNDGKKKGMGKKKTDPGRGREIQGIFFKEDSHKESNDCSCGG
Experiment Summary: phosphorylation enrichment, bacterial display (enrichment ratio); higher = better substrate or ligand; peptides without Tyr show the background
Please give only the number in your answer, with no unit.

Reference set, count: 2
[[record]]
input_sequence = "DDDPEYRKFLE [UPF3B_Y160]"
reported_value = 0.7

[[record]]
input_sequence = "LSGVIYVILGK [PMP22_Y153_R157G]"
reported_value = 0.588


Turning now to a further record.
Supply recorded phosphorylation enrichment for QWRTKYETDTI [MYH7_Y1375_A1379T] here.
0.797

----------
Assay Target: c-Src SH2
Experiment Summary: SH2 binding enrichment of the phosphorylated peptide, bacterial display (enrichment ratio); higher = better substrate or ligand; peptides without Tyr show the background
Quantity: SH2 binding enrichment
Please give only the number in your answer, with no unit.

[[record]]
input_sequence = "VDEERYDIEAK [TNNI3_Y112]"
assay_target = "c-Src SH2"
quantity = "SH2 binding enrichment"
reported_value = 0.62

[[record]]
input_sequence = "FHIDHYLGKEM [G6PD_Y202_R198H_YF]"
assay_target = "c-Src SH2"
quantity = "SH2 binding enrichment"
reported_value = 0.778

[[record]]
input_sequence = "VDEVLYEDSST [MTHFS_Y197]"
assay_target = "c-Src SH2"
quantity = "SH2 binding enrichment"
reported_value = 0.489

[[record]]
input_sequence = "PLFSKYWPNHI [GREB1L_Y1560_R1558S_YF]"
assay_target = "c-Src SH2"
quantity = "SH2 binding enrichment"
reported_value = 0.459

[[record]]
input_sequence = "IKKLIYVYLVI [JAGN1_Y42_H44Y]"
assay_target = "c-Src SH2"
quantity = "SH2 binding enrichment"
reported_value = 0.612

[[record]]
input_sequence = "VTSLKYSTPPF [BRIP1_Y916_S919P_YF]"
assay_target = "c-Src SH2"
quantity = "SH2 binding enrichment"
reported_value = 0.492

[[record]]
input_sequence = "EIVYVYVKKRS [DNAI2_Y7]"
assay_target = "c-Src SH2"
quantity = "SH2 binding enrichment"
reported_value = 0.483

[[record]]
input_sequence = "DGYTDYAEFAK [MCFD2_Y138_I136T]"
assay_target = "c-Src SH2"
quantity = "SH2 binding enrichment"
reported_value = 1.22


Tell me its SH2 binding enrichment on c-Src SH2: QFRFIYMAVQH [PTPN11_Y515_YF]
0.58

----------
Assay Target: EPHB1 (UniProt P54762)
Sequence (P54762 whole entry, looked up): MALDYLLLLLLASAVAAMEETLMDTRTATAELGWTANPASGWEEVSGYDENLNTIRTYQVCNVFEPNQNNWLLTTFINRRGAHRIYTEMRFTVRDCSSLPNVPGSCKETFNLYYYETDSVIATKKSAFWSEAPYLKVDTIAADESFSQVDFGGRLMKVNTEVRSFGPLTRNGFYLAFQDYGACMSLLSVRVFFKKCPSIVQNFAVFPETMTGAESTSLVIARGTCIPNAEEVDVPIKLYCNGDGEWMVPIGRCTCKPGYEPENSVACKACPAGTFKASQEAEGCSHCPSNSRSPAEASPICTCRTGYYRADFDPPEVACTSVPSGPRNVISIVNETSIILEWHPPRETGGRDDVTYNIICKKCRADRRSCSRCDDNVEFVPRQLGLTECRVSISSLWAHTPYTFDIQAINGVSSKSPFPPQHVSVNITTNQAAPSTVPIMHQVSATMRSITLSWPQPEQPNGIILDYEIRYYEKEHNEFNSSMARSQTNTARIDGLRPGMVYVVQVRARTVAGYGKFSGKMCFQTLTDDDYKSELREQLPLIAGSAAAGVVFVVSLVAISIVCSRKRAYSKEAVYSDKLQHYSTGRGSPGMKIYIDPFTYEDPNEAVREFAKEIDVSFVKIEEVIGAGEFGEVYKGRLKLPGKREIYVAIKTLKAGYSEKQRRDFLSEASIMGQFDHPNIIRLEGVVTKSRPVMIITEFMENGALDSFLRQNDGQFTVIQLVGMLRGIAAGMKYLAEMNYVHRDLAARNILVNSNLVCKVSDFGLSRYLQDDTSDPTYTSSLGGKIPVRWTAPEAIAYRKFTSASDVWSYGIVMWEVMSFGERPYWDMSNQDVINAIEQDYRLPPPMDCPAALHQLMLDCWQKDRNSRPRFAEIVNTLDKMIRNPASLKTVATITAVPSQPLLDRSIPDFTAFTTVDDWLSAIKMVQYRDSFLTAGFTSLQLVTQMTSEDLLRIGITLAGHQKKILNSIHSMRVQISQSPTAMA
Experiment Summary: phosphorylation enrichment, bacterial display (enrichment ratio); higher = better substrate or ligand; peptides without Tyr show the background
Form field: phosphorylation enrichment (one value per entry).
Please give only the number in your answer, with no unit.

[[record]]
input_sequence = "YVGGFYGGCNE [CTSC_Y352]"
quantity = "phosphorylation enrichment"
reported_value = 0.54

[[record]]
input_sequence = "AIFEGYALPHA [ACTC1_Y171_P166A_YF]"
quantity = "phosphorylation enrichment"
reported_value = 0.452

[[record]]
input_sequence = "RLGDLYEEEMR [VIM_Y150]"
quantity = "phosphorylation enrichment"
reported_value = 0.615

[[record]]
input_sequence = "FLAVGYHKTHI [IDS_Y225_P228T]"
quantity = "phosphorylation enrichment"
reported_value = 0.548

[[record]]
input_sequence = "CTNPRYLAAGS [RABL3_Y185]"
quantity = "phosphorylation enrichment"
reported_value = 0.496

[[record]]
input_sequence = "EESSHYSTEKE [ADAR_Y587]"
quantity = "phosphorylation enrichment"
reported_value = 0.621

[[record]]
input_sequence = "RRGMPYGGCGD [TGM1_Y312_R315C]"
quantity = "phosphorylation enrichment"
reported_value = 0.551


Turning now to a further record.
Supply recorded phosphorylation enrichment for VTSLKYSTPPF [BRIP1_Y916_S919P_YF] here.
0.342
